Origin of the recorded values: paper PMC10810434

List of pIC50 values.
- Tested on: HeLa
- Method Notes: In vitro antiproliferative MTT assay on HeLa
- Format: cell-based, human
- Cond: Homo sapiens, HeLa, up to 72 hours, mean of two independent measurements with three replicates each, read-out: Calculated IC50 ± SEM, HeLa
In simple prose, pIC50 is minus the logarithm base ten of a concentration in moles per litre.

Compound	Recorded Number
COC1(c2cc(=O)c3c(O)cc(OC(=O)CCC4=C(C(C)C)C(=O)C=C(C)C4=O)cc3o2)C=CC(=O)C=C1 [Compound 15]	5.17
CC1=CC(=O)C(C(C)C)=C(CCC(=O)Oc2cc(O)c3c(=O)cc(C4(O)C=CC(=O)C=C4)oc3c2)C1=O [Compound 14]	5.97
CCOC1(c2cc(=O)c3c(O)cc(OC(=O)CCC4=C(C(C)C)C(=O)C=C(C)C4=O)cc3o2)C=CC(=O)C=C1 [Compound 16]	5.77
CC1=C(CCC(=O)Oc2cc(O)c3c(=O)cc(C4(O)C=CC(=O)C=C4)oc3c2)C(=O)C(C(C)C)=CC1=O [Compound 10]	5.70
CCCCOC1(c2cc(=O)c3c(O)cc(OC(=O)CCC4=C(C(C)C)C(=O)C=C(C)C4=O)cc3o2)C=CC(=O)C=C1 [Compound 17]	5.51

Next compound, pIC50 to be filled in.
Which pIC50 value belongs to O=C1C=CC(O)(c2cc(=O)c3c(O)cc(O)cc3o2)C=C1 [Compound 6, Protoapigenone] ? 5.74
